# Target entity: T1, APJ receptor (human, UniProt P35414 1-380)
# T1 sequence (looked up): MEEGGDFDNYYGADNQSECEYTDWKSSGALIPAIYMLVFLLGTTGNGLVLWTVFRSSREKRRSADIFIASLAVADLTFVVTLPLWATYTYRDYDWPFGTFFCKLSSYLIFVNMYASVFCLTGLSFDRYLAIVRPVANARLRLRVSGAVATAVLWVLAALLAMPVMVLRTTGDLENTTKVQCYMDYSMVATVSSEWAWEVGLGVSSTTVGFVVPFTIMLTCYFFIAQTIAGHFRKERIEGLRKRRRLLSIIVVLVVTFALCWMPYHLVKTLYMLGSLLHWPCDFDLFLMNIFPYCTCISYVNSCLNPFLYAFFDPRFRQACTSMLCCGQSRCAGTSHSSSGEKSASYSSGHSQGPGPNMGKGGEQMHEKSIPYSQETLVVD
# Run description: cell-based or functional assay
[ ]: non-standard residue; d: D form. Pro(trans-4-Ph) = O=C(O)[C@@H]1C[C@@H](c2ccccc2)CN1; pGlu = O=C1CC[C@@H](C(=O)O)N1; dNle = CCCC[C@@H](N)C(=O)O
Experimental endpoint: hAPJ Ca^2+ Flux EC50 (nM)

Look over these answered cases.
• [pGlu]RPRLS[dA]KGP[dNle][dA][dF]-OH (SMILES CCCC[C@@H](NC(=O)[C@@H]1CCCN1C(=O)CNC(=O)[C@H](CCCCN)NC(=O)[C@@H](C)NC(=O)[C@H](CO)NC(=O)[C@H](CC(C)C)NC(=O)[C@H](CCCNC(=N)N)NC(=O)[C@@H]1CCCN1C(=O)[C@H](CCCNC(=N)N)NC(=O)[C@@H]1CCC(=O)N1)C(=O)N[C@H](C)C(=O)N[C@H](Cc1ccccc1)C(=O)O) [pE-R-P-R-L-S-a-K-G-P-nle-a-f-OH] = 8.5
• [pGlu]R[Pro(trans-4-Ph)]RL[dA]HKGP[dNle][dA][dF]-OH [pE-R-(trans-4-PhP)-R-L-a-H-K-G-P-nle-a-f-OH] = 9.9
• [pGlu]RPRL[dA]HKGP[dNle][dA][dF]-NH2 [pE-R-P-R-L-a-H-K-G-P-nle-a-f-NH2] = 14.8
• [pGlu]RPRL[dA]HKGP[dNle][dL][dF]-OH (SMILES CCCC[C@@H](NC(=O)[C@@H]1CCCN1C(=O)CNC(=O)[C@H](CCCCN)NC(=O)[C@H](Cc1c[nH]cn1)NC(=O)[C@@H](C)NC(=O)[C@H](CC(C)C)NC(=O)[C@H](CCCNC(=N)N)NC(=O)[C@@H]1CCCN1C(=O)[C@H](CCCNC(=N)N)NC(=O)[C@@H]1CCC(=O)N1)C(=O)N[C@H](CC(C)C)C(=O)N[C@H](Cc1ccccc1)C(=O)O) [pE-R-P-R-L-a-H-K-G-P-nle-(D-Leu)-f-OH] = 3.2
• [pGlu]RPRL[dV]HKGP[dNle][dA][dF]-OH (SMILES CCCC[C@@H](NC(=O)[C@@H]1CCCN1C(=O)CNC(=O)[C@H](CCCCN)NC(=O)[C@H](Cc1c[nH]cn1)NC(=O)[C@H](NC(=O)[C@H](CC(C)C)NC(=O)[C@H](CCCNC(=N)N)NC(=O)[C@@H]1CCCN1C(=O)[C@H](CCCNC(=N)N)NC(=O)[C@@H]1CCC(=O)N1)C(C)C)C(=O)N[C@H](C)C(=O)N[C@H](Cc1ccccc1)C(=O)O) [pE-R-P-R-L-v-H-K-G-P-nle-a-f-OH] = 7.9

1: ERPRLAHKGPLF (pE at 1; D-Ala at 6; Nle (L-norleucine) at 11; D-Phe at 12) [pE-R-P-R-L-a-H-K-G-P-Nle-f-OH]
2: [pGlu]RPRL[dCys(tBu)]HKGP[dNle][dA][dF]-OH [pE-R-P-R-L-c(tBu)-H-K-G-P-nle-a-f-OH]
3: ERPRLSXKGPLPF (pE at 1; Aib at 7; Nle (L-norleucine) at 11; D-Phe at 13) [pE-R-P-R-L-S-Aib-K-G-P-Nle-P-f-OH]
(Q) # sort list by recorded hAPJ Ca^2+ Flux EC50, greatest to least Give the labels in the order requested.
(A) 2, 1, 3
(2: 693 nM, 1: 10.7 nM, 3: 4.5 nM)
